Known Solubility of a selection of compounds
- ASSAY_METHOD_TEXT: Solubility in PBS
- Assay type: physicochemical
- Method: After ultracentrifugation of the PBS solution, the supernatant was analyzed by HPLC and compared to an HPLC injection 50 μM peptide DMSO solution. Solubility was determined by: [(Area of PBS peak)/(Area of DMSO peak)]*50 uM.
# output: number + unit

Worked cases, Solubility given:
compound="CC[C@H](C)[C@@H]1NC(=O)[C@H](CC(=O)O)NC(=O)[C@]2(CC=CCCCC3(CCCC=CCCCCCC[C@@](C)(C(=O)N[C@@H](CC(=O)O)C(=O)N[C@@H](Cc4csc5ccccc45)C(=O)N[C@@H](CCC(N)=O)C(N)=O)NC(=O)[C@H](CCC(N)=O)NC(=O)[C@H](Cc4ccccc4)NC(=O)[C@H](C)NC(=O)[C@H](C)NC(=O)[C@H](CCC(=O)O)NC(=O)[C@H](Cc4ccccc4)NC3=O)NC1=O)CCCN2C(C)=O (stereo partly drawn)" metric_name=Solubility assay_value="50 µM"
compound="CC(=O)N1CCC[C@]12CC=CCCCC1(CCCC=CCCCOC(=O)N3CC[C@@](C(=O)N[C@@H](Cc4ccccc4Cl)C(=O)N[C@@H](Cc4csc5ccccc45)C(=O)N[C@H](C(N)=O)[C@@H](C)O)(C3)NC(=O)[C@H](Cc3ccccc3)NC(=O)[C@H](Cc3ccccc3)NC(=O)[C@H](C)NC(=O)[C@H](C)NC(=O)[C@H](CN(CC(=O)O)CC(F)(F)F)NC(=O)[C@H](CC(=O)O)NC1=O)NC(=O)[C@H](CC(C)(C)C)NC(=O)[C@H](CC(=O)O)NC2=O (stereo partly drawn)" metric_name=Solubility assay_value="10 µM"

Could you now look at the following compound, please?
Prompt: Would you kindly share the measured Solubility for CC(=O)N1CCC[C@]12CC=CCCCC1(CCCC=CCCCCOC(=O)N3CC[C@@](C(=O)N[C@@H](Cc4ccsc4)C(=O)N[C@@H](Cc4csc5ccccc45)C(=O)N[C@@H](Cc4c[nH]cn4)C(N)=O)(C3)NC(=O)[C@H](CC(N)=O)NC(=O)[C@H](Cc3ccccc3)NC(=O)[C@H](C)NC(=O)[C@H](C)NC(=O)[C@H](CC(=O)O)NC(=O)[C@H](CC(=O)O)NC1=O)NC(=O)[C@H](CC(C)(C)C)NC(=O)[C@H](CC(=O)O)NC2=O (stereo partly drawn) [I-776] ?
Response: 41 µM
